Documented fluorescence slope across a set of molecules
- target under test: Muscarinic acetylcholine receptor M4 (Homo sapiens)
- assay name: M4-linked GIRK flux change, two-sided – cell-based, HEK293 M4/GIRK, thallium flux, BTC-AM, M4 allosteric agonist project, primary screen (AID 625);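 also: thallium influx through GIRK channels coupled to M4 in HEK293 cells with BTC-AM dye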
- condition info: at 10 µM, actives lie on both sides
Lab note: write the figure by itself, no unit.

Answered cases to consult:
Prompt: If you can, please state the reported fluorescence slope value of COc1cccc(CNC(=O)C2CCN(c3cnccn3)CC2)c1 .
Completion: 0.00424

Prompt: If you can, please state the reported fluorescence slope value of FC(F)Sc1nnc(-c2cccs2)n1-c1ccccc1 .
Completion: 0.00612

Prompt: If you can, please state the reported fluorescence slope value of CCOc1cc(C)c(C(C)C)cc1S(=O)(=O)N1CCN(C)CC1 .
Completion: 0.00438

Prompt: If you can, please state the reported fluorescence slope value of COc1ccc(CN2C(=O)c3ccccc3C2C(=O)NC2CCCC2)c(OC)c1 (stereo unspecified) .
Completion: 0.00535

Prompt: If you can, please state the reported fluorescence slope value of COc1ccc2c(c1)CCc1c(C(=O)NCc3cccnc3)noc1-2 .
Completion: 0.00462

Moving on to the next molecule.
Prompt: If you can, please state the reported fluorescence slope value of Cc1ccc(OC(=O)NC2CCS(=O)(=O)C2)cc1C (stereo unspecified) .
Completion: 0.00398

* * *

- assay name: inhibitors of TNFa-induced NFkB p65 translocation, primary screen, imaging, HUVEC, MLSMR starter and 10KST1 sets (AID 438);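 also: compound added about 3h40 before a 20 min TNFalpha stimulation; signal is the nuclear over cytoplasmic p65 intensity ratio per well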
- condition info: HUVEC TNFa-induced p65 nuclear translocation; at 2 µM, stronger effect = higher value, 0% TNFa-plus-vehicle, 100% no-TNFa wells
measurement label: inhibition (%)
Response body: numeric value in %, unit text excluded.

Prompt: If you can, please state the reported inhibition value of COc1cccc(N(C(=O)c2ccco2)C(C(=O)NC2CCCC2)c2ccc(N(C)C)cc2)c1 (configuration not stated) .
Completion: -1.6

Prompt: If you can, please state the reported inhibition value of COc1ccc(-c2c(=O)n(OCc3ccccn3)c3ccccc3[n+]2[O-])cc1OC .
Completion: 3.3

Moving on to the next compound.
Prompt: If you can, please state the reported inhibition value of COc1cc(-c2nc(-c3ccncc3)no2)cc(OC)c1OC .
Completion: -1.1

* * *

- assay name: endothelial E-selectin expression blockers – imaging, HUVEC, immunofluorescence, MLSMR starter and 10KST1 sets, primary screen (AID 487);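 also: 100% = median nuclei count of all wells on the same plate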
- condition info: HUVEC TNFalpha-induced E-selectin immunofluorescence imaging, at 2 µM; measured here: cell number, toxicity
Documented nuclei count across a set of molecules
Response body: numeric value in %, unit text excluded.

Answered cases to consult:
Prompt: If you can, please state the reported nuclei count value of Cc1cc(NC(=O)Cn2cnc3c(cnn3C(C)(C)C)c2=O)no1 .
Completion: 102

Prompt: If you can, please state the reported nuclei count value of CC(C)N(C(=O)COC(=O)c1ccc(O)cc1)C(C)C .
Completion: 121

Prompt: If you can, please state the reported nuclei count value of Cc1cc(C)n(C(=O)C23CC4CC(CC(C4)C2)C3)n1 .
Completion: 89.4

Prompt: If you can, please state the reported nuclei count value of COc1cccc(NC(=O)N(CCCN2CCOCC2)C(C)c2cc3cccc(OC)c3o2)c1 (stereo not given) .
Completion: 132

Prompt: If you can, please state the reported nuclei count value of O=C(Nc1ccccc1Cl)c1c(F)c(F)c(F)c(F)c1F .
Completion: 116

Prompt: If you can, please state the reported nuclei count value of O=C(CNS(=O)(=O)c1ccccc1)NCc1ccccn1 .
Completion: 113

---
Prompt: If you can, please state the reported nuclei count value of CC(OC1=CC(=O)CCC1)C(=O)c1ccccc1 (stereo not given) .
Completion: 72.3

Prompt: If you can, please state the reported nuclei count value of Fc1cccc(Nc2ncnc3c2cnn3-c2ccccc2)c1 .
Completion: 127

Prompt: If you can, please state the reported nuclei count value of COc1ccc(OC)c(NC(=O)C23CCC(C)(C(=O)C2)C3(C)C)c1 (stereo not given) .
Completion: 125
